- Target of assay: CK2α (Homo sapiens, UniProt P68400)
- Sequence (P68400 whole entry): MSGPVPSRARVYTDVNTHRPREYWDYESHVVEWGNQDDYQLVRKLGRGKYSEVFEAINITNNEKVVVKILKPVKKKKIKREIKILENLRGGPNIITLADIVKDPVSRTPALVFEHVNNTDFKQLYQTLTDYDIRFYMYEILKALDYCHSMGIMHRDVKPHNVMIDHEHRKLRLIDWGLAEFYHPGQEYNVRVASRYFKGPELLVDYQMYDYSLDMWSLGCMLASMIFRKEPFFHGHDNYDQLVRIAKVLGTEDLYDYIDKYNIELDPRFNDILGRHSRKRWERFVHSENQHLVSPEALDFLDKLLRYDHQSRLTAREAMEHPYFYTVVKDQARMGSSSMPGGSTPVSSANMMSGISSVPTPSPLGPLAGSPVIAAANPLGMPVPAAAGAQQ
- Assay procedure: ADP-Glo kinase assay, CK2 inhibition
- Assay type: biochemical
- Study conditions: 16 μM compound
- Protocol: In vitro CK2 kinase inhibition assay were carried out for the six compounds using ADP-Glo^TM kinase assay. […] As indicated in Table 1 and Figure 5a, these compounds presented the inhibitory effect on CK2α activity to different extent. At the concentration of 16 μM, compound 3 inhibited nearly 50% of CK2α activity. However, at the same concentration, other compounds had only 20% inhibitory activity. […]
Result type: inhibition at 16 µM (%)

Would you please look over these solved cases?
Compound	inhibition at 16 µM [%]
Cc1c(Cl)cccc1NC(=O)CC1NCCNC1=O (stereo not drawn)	16
COc1ccc(C(=O)Nc2ccc3[nH]c(=O)[nH]c3c2)cc1Br	16
COc1ccc(C(=O)Nc2ccc(C(N)=O)cc2)cc1Br	14

(I) Nc1cc(=O)nc(SCc2ccccc2Cl)[nH]1
(II) O=C(Cc1cccc2ccccc12)Nc1c[nH]c(=O)[nH]c1=O
Just tell me: smaller inhibition at 16 µM value, I or II ? Answer format: the label of the selected item.
I
(I: 12%, II: 22%)
